The origin of these recorded values is ChEMBL document CHEMBL1201862.

List of GI50 values.
System: SW-620
measurementProtocol: NCI tumour cell line growth inhibition, 48 h
Activity calls are given as the source filed them. No stated cut-off is given here; in the data, active = GI50 up to about 1.1 µM and inactive = higher.

molecule	GI50
CC(=O)C1=C(N=[N+]=[N-])c2cccc3cccc(c23)C1=O	18.3 µM (inactive)
CC(C)C(=O)N[C@@H](C)C(=O)N(Cc1ccc2ccccc2c1)N=O	55.5 µM (inactive)
Cc1cccc(C)c1N1C(=O)C(=O)C(c2nc3ccccc3s2)/C(=N\N)C1=O (stereo not given)	> 100 µM (inactive)
C/C=C(/C)C(=O)O[C@H]1[C@H](O)CC(c2ccc3c(c2O)C(=O)C2=C(O)C4(OC)C(=O)C(C(N)=O)=C(O)[C@H](CC(=O)c5ccccc5O)C4CC2[C@@]3(C)OC)O[C@@H]1C (stereo not given in full)	0.00408 µM (active)
Cc1nc2c(-c3ccccc3)[nH]c(C)c2c(=O)o1	> 100 µM (inactive)
CCCC[S+]([O-])CCC(N)P(=O)(O)O (stereo not given)	> 100 µM (inactive)
O=C(O)c1ccccc1CC1Cc2cc3c(cc2C1)CCC3	> 100 µM (inactive)
CN(C)CCC[N+]1=Nc2cccc3cccc(c23)N1	10.4 µM (inactive)
CCOC(=O)c1nc2cc(F)c(F)cc2nc1NCc1cc(OC)c(OC)c(OC)c1	> 100 µM (inactive)
CCCCCCCCCC[C@@H](O)[C@@H]1CC[C@H]([C@H]2CC[C@@H]([C@@H](O)CCCCCCCCCC[C@H]3CC(CC(C)=O)C(=O)O3)O2)O1 (stereo not given in full)	13.5 µM (inactive)
COC(=O)C1=C(C(=O)Nc2cccnc2Cl)N(c2ccc(OC)cc2[N+](=O)[O-])C(c2ccc(C)cc2)=CC1c1ccc(OC)cc1OC (stereo not given)	4.66 µM (inactive)
COc1cc2ncnc(Nc3cccc(Cl)c3)c2cc1OC	16.1 µM (inactive)
COc1ccc2c(c1)Cc1c-2[nH]c2cc3c(cc2c1=O)OCO3	27.5 µM (inactive)
C#Cc1ccccc1N1C(=O)C=CC1=O	> 100 µM (inactive)
[O-]c1c2c(nn1-c1ccccc1)c1ccccc1c[n+]2Cc1ccccc1	> 100 µM (inactive)
CC(C(N)=O)N(C)C(=O)c1cnc2ccccc2c1 (stereo not given)	> 100 µM (inactive)
O=C1C(N2CCN(CCOCCO)CC2)=C(Cl)C(=O)c2ncccc21	23 µM (inactive)
COc1ccccc1C(=O)NO	> 100 µM (inactive)
O=C(O)/C=C/C=C/c1ccc2c(c1)OCO2	> 100 µM (inactive)
C/C=C/C(C#N)(Cc1ccccc1)OP1(=O)OC(c2ccccc2)C(C)N1C (stereo not given)	> 100 µM (inactive)

---

System: RPMI-8226
measurementProtocol: NCI tumour cell line growth inhibition, 48 h
The source made the active and inactive calls. Cut-off read from the data, not from the text of the source: active = GI50 up to about 1.1 µM and inactive = higher.

compound	GI50
ClCCCN1CCN(CCCl)CC1	205 µM (inactive)
CC(=O)O[C@H]1C(=O)[C@@]2(C)[C@H]([C@H](OC(=O)c3ccoc3)[C@]3(O)C[C@H](OC(=O)[C@H](O)[C@@H](NC(=O)c4ccccc4)c4ccccc4)C(C)=C1C3(C)C)[C@]1(OC(C)=O)CO[C@@H]1C[C@@H]2O	0.00904 µM (active)
CCOC(=O)N(c1ccccc1)c1cc(=O)n2ccccc2n1	> 100 µM (inactive)
CCOC(=O)CCC(NC(=O)OCc1ccccc1)C(=O)NC(CCC(=O)OCC)C(=O)NC(CCC(=O)OCC)C(=O)NNC(=O)OC(C)(C)C (stereo unspecified)	> 100 µM (inactive)
Nc1nc(=S)n(-c2ccc(Cl)cc2)c2nc3ccccc3cc12	59.6 µM (inactive)
O=C(O)/C=C/C=C/c1ccc2c(c1)OCO2	> 100 µM (inactive)
Cc1c(-c2ccccc2)oc(=O)c2ccccc12	16.7 µM (inactive)
CC(C)=CC(=O)CC(=O)C(=O)NCCNC(=O)C(=O)CC(=O)C=C(C)C	> 50 µM (inactive)
Cc1cnoc1NS(=O)(=O)c1ccc(Nc2nnc(/C=C/c3c(O)ccc4ccccc34)c(=O)n2N)cc1	20.2 µM (inactive)
CN(C)/C=N/S(=O)(=O)c1nn2c(C=O)c(-c3ccc(-c4ccccc4)cc3)nc2s1	0.83 µM (active)
Cc1ccc(N/C(=C(/C(Cl)=C(Cl)Cl)[N+](=O)[O-])n2nnc3ccccc32)cc1	20.2 µM (inactive)
CC(C(N)=O)N(C)C(=O)c1cnc2ccccc2c1 (stereo unspecified)	> 100 µM (inactive)
Cc1ccc2c(c1)c(=O)c1c(NCCN(C)C)ccc3nnn2c31	2.36 µM (inactive)
O=c1nc(N2CCCCC2)sc2[nH]c3ccccc3c12	40.9 µM (inactive)
O=C1Cc2c(-c3ccccc3)cc(-c3ccc4ccccc4c3)nc2-c2ccccc2N1	17.7 µM (inactive)
Nc1ccn(CCO)c(=O)n1	> 100 µM (inactive)
OCCCSCCO	> 100 µM (inactive)
O=C(/C(=C\C(=O)c1cccs1)c1ccsc1)c1ccc(Br)cc1	71.1 µM (inactive)
COc1ccc2c(c1)CCN1CCCc3ccc(OC)cc3C21 (stereo unspecified)	31.6 µM (inactive)
COC(=O)/C(C#N)=C1\CCC(O)N1 (stereo unspecified)	> 100 µM (inactive)
O=[N+]([O-])c1c(F)c(F)c2c(c1F)Nc1ccccc1S2	4.7 µM (inactive)
